Tested on: MS2 coat protein
Assay: apparent KD of MS2 coat protein; higher = weaker reporter binding
Conditions: Eterna round: R107; input ligand: theophylline 20 uM
Quick rule for you: apparent KD of MS2 coat protein at 70 nM or higher means 1 (yes), lower means 0 (no).

- SEQUENCE_STRING: "GGUCACCUAUCCUCAUUGGUGACCCUGGAAGGAGCGAGCGAGAGCUCAGGUAGGUCGCCAGAACAUGAGGAUCACCCAUGUAAUA [(A)''-(M)'-(A)'(Arg1)-(Arg2)-(M1)-(M2)_Design12]"
  CLASS_LABEL: "1 (yes)"
- SEQUENCE_STRING: "GCGUUCUCUGCGGCCGCCACUCAAGGAGCUACAUAGCUCCUAGACAUGAGGAUCACCCAUGUGGCGAGGACCGGGUAGAUCCUUA [Same State Typptophan B GF7]"
  CLASS_LABEL: "1 (yes)"
- SEQUENCE_STRING: "CUCAUCCACGCGGCCGCCACUACUUGUAGGUGUGGGUGUGUUGUGUUACAUGAGGAUCACCCAUGUAGGACCGGGCGUGGAUGAG [Whale]"
  CLASS_LABEL: "1 (yes)"
- SEQUENCE_STRING: "AUCUGUAUGUUUUCGUGUUUUAUUACAGAUACCAGACUAUACGUUGUCCCUUGGCAGCUGGAUGACAUGAGGAUCACCCAUGUUG [#27 Exclusion-TheophyllineA]"
  CLASS_LABEL: "0 (no)"
- SEQUENCE_STRING: "UGUACCAUGUCGGCCGCCACUCAUGAUAAACCUGAGGAUCACCCUGGUAGCGUCAAAGACGCUAUGAGGACCGGGACAUGGUACU [TryBS Zipper 2]"
  CLASS_LABEL: "0 (no)"
- SEQUENCE_STRING: "AUAACAUGAGGAUCACCCAUGUAAGCUGAAGGAGCGCUGGAAACAGCAGGUAGGUCGCAGCGGCGACCUUCAUGGGUAAGGUCGC [(M1)-(M2)-(Arg1)-(Arg2)-(A)'-(M)'-(A)''_Design4]"
  CLASS_LABEL: "0 (no)"
- SEQUENCE_STRING: "GCCAGACAUGAGGAUCACCCAUGUAGCGAUACCAGCUCUGUUGUGAGCCCUUGGCAGCGCACUGGCAUCGUAGGUGAUCCAAUAA [(T)''-(Ms2)-(Theo)-(T)'-(M)'_Design1]"
  CLASS_LABEL: "1 (yes)"
- SEQUENCE_STRING: "CGCGGACCACCUGAUACCAGCGCAGUCAUGCAUGAACCCAACAUGAGGAUCACCCAUGUACGCCCUUGGCAGCAGGGAAAAGUCG [theeternabot_exclusion_MS2_Theo_B_8]"
  CLASS_LABEL: "1 (yes)"
- SEQUENCE_STRING: "CCUCGACAUGAGGAUCACCCAUGUAGAGAUACCAGCCUGUGAGAUGGCCCUUGGCAGCUCAUAUAGGGUACGGGAGUCGUUUCGA [Eslaqu]"
  CLASS_LABEL: "0 (no)"
- SEQUENCE_STRING: "CUCUCAUGAACAUGAGGAUCACCCAUGUAACGAGGACCGGUACGGCCGCCACUCGGUCGUGGAAACUAAUCGAGUGAGGUGGGAG [Tryp A Ex t5c]"
  CLASS_LABEL: "1 (yes)"
- SEQUENCE_STRING: "AAAACAUGAGGAUCACCACAUGACAUGAGGCGAGGACCGGUACGGCCGCCACUCGACAUACAUGAGGAUCACCCAUGUUUGUUGU [Exclusion Tryptophan A 4]"
  CLASS_LABEL: "1 (yes)"
- SEQUENCE_STRING: "UUAUAAGUACCGGUCCUCAGAUCCUCAUGACGAGGACCGGUACGGCCGCCACUCGAAACAUGAGGAUCACCCAUGUAAUAACACU [Brourdmod20]"
  CLASS_LABEL: "0 (no)"
- SEQUENCE_STRING: "AGCAUACAUUCUGAUACCAGAGACAUGAGGAUCACCCAUGUCCGAUCGUCCUGCCUCAGACUCCCUUGGCAGCAGGAUGUGUGCU [Exclusion Theophylline B GF6]"
  CLASS_LABEL: "0 (no)"
- SEQUENCE_STRING: "GGCACAUAGUCGGCCGCCACUAGAUUUUAGUGGAAUAACAUGAGGAUCACCCAUGUAUUUGGGACUAGGACCGGGACUAUGUGCC [Hyena]"
  CLASS_LABEL: "0 (no)"
- SEQUENCE_STRING: "UGUAUGUGAUCUGAUACCAGUCCAACUGGUAAAAUCUGAGGAUCACCCAGGUAAAAUUGGGACCCUUGGCAGCAGAUCGCAUACU"
  CLASS_LABEL: "1 (yes)"
- SEQUENCE_STRING: "UUCUACGGCGAUCUGGGUUUACCAGAUCGACGAGGACCGGUACGGCCGCCACUCGUGUUUCUUUAACAUGAGGAUCACCCAUGUA [#11 Tryptophan A Same State]"
  CLASS_LABEL: "1 (yes)"
- SEQUENCE_STRING: "UGUAUGUGAUCUGAUACCAGAGUGACGCGAAAGCGAAACCUGAGGAUCACCCUGGUAAAACUCCCUUGGCAGCAGAUCGCAUACU"
  CLASS_LABEL: "0 (no)"
- SEQUENCE_STRING: "GGACUAACCUGAAGGAGCGGCACGCAGAAACUGCAAAUUCCUCCACACGAGGAUCACCCGUGUCAGGUAGGUCGCAGGUUAGUCG [ArgBX 28]"
  CLASS_LABEL: "0 (no)"
- SEQUENCE_STRING: "GACAUGAGGAUCACCCAUGUACCGCGAGAAGGAGCGCGGAUAAACGCAGGUAGGUCGCUCGUGGGCUUACAUUCAAGUGUAAGCU [Usarat]"
  CLASS_LABEL: "1 (yes)"
- SEQUENCE_STRING: "GGUACAUGAGGAUCACCCAUGUGUCAUGAUACCAGACAUGAAAAUGUCCCUUGGCAGCAUGCCUGAUGGCCGCGUUUAGCGGCCG [Liskovec]"
  CLASS_LABEL: "0 (no)"
- SEQUENCE_STRING: "AGGUGCUGAUCGGCCGCCACUGAGAGGACGUGAACUUUAGCUGGUUACAUGAGGAUCACCCAUGUCAGGACCGGGAUUAGUUUGC [Quleorla]"
  CLASS_LABEL: "0 (no)"
- SEQUENCE_STRING: "AGACACAUGAGGAUCACCCAUGUACACGAGCGAGGACCGGUACGGCCGCCACUCGUCCAAGCAACUAAUGAGACUCGUAAGAUGG [theeternabot_sameState_MS2_Trp_A_5]"
  CLASS_LABEL: "0 (no)"

###

Test system: MS2 coat protein
Assay: apparent KD of MS2 coat protein; designed switch direction (-1 OFF switch, 1 ON switch): 1; higher = weaker reporter binding
Conditions: input ligand: FMN 200 uM
Quick rule for you: apparent KD of MS2 coat protein at 100 nM or higher means true, lower means false.

- SEQUENCE_STRING: "AACAAGCACAUGAGGAUCACCCAUGUGAGAAUAAAACCCUCAUAGGAUAUCCGCGGUUAACUCCCGGAGAAGGGUGAGACUCCU [Edtiedus] (Eterna round: R96, puzzle: Same State NG 3)"
  CLASS_LABEL: "true"
- SEQUENCE_STRING: "AUUACUAACAUAGGAUAUCAUGCGAAAAUUGCGUGAGAAGGGUGGACACUGUCUUUCUCGGAGUACAUGAGGAUCACCCAUGUG [SameState NG1 #68] (Eterna round: R96, puzzle: Same State NG 1)"
  CLASS_LABEL: "true"
- SEQUENCE_STRING: "GUCCAAAACACAGGAUAUCCCGGUCAAAAUCCGGGAGAAGGGUGGCCACAUGAGGAUCACCCAUGUGACGUGCGAGAGGCACGA [Diessorire] (Eterna round: R96, puzzle: Same State NG 1)"
  CLASS_LABEL: "true"
- SEQUENCE_STRING: "AACAUACAUGAGGAUCACCCAUGUUCCGGCAGGACAGGAUAUACAUCGAAAGUGUUAUAAGUAGAAGGGUCAUAAA [JR_SS001_Sub012] (Eterna round: R96, puzzle: Same State 1)"
  CLASS_LABEL: "false"
- SEQUENCE_STRING: "GUGGUCAGACAUGAGGAUCACCCAUGUGGAAUAAAUAAGGUUUAGGAUAUGGAAUAUAGGAUAUACCAGAAGGAAAGGUUGGUG (Eterna round: R96, puzzle: Same State NG 3)"
  CLASS_LABEL: "true"
- SEQUENCE_STRING: "AAACGGCCGAACGGAGGACCACAUGAGGAUCACCCAUGUACAUAGGAUAUCAUGCCAACGAGGCAUGAGAAGGGUGAUUAAAAC [Ribigeso] (Eterna round: R96, puzzle: Same State NG 3)"
  CLASS_LABEL: "true"
- SEQUENCE_STRING: "AAAUAAAACACAGGAUAUGCAACCAAUACGGCGGCAGAAGGGUGAGACAUGAGGAUCACCCAUGUACACGUCCCACAGACGUGC [Onlaa] (Eterna round: R96, puzzle: Same State NG 1)"
  CLASS_LABEL: "true"
- SEQUENCE_STRING: "GUGGUCAGACAUGAGGAUCACCCAUGUGGAAUAAAUAACGGACAGGAUAUAAAAUAUAGGAUAUAUUAGAAGGGUUGAUUGGUG (Eterna round: R96, puzzle: Same State NG 3)"
  CLASS_LABEL: "false"
- SEQUENCE_STRING: "GAGCCAGUCCGAGGAUAUUCAUAUUACAUGAGGAUCACCCAUGUAGGCUCAGAAAAGGAGCCUUGGGAGAAGGCGGACUGGCUC [Xeonanisa<<3] (Eterna round: R96, puzzle: Same State NG 2)"
  CLASS_LABEL: "false"
- SEQUENCE_STRING: "GGUGGGUUGCUGCCGGCACAUGAGGAUCACCCAUGUUUUGGGAAGGAUAUGGUACCUCUUUGGUGCCAGAAGGUCCCGUUGGUG [salish99_SSNG3_r04_713] (Eterna round: R96, puzzle: Same State NG 3)"
  CLASS_LABEL: "true"
- SEQUENCE_STRING: "CCCUCACAUGAGGAUCACCCAUGUCCUAGCCCGUCAGGAUAUAGCCCGCAUCCGCUGCGGCUAGAAGGGACAGCUG [JR_SS001_Sub611] (Eterna round: R96, puzzle: Same State 1)"
  CLASS_LABEL: "true"
- SEQUENCE_STRING: "CGUCGUUUGAUAGGAUAUCGCUUUACAUGAGGAUCGCCCAUGUUUACCACGCUGGUUUUUCUUUCCGAGAAGGAUUCUGAUGUU [salish99_SSNG02_r04_027] (Eterna round: R96, puzzle: Same State NG 2)"
  CLASS_LABEL: "false"
- SEQUENCE_STRING: "UGGUACAUGGGAGGAUAUCUCAUGGUGACAUGAGGAUCACCCAUGUAGUUGGUGCCGAAAGGCUGAGAGAAGGCCCAUGUACCU [JL SSNG1 3.76] (Eterna round: R96, puzzle: Same State NG 2)"
  CLASS_LABEL: "false"
- SEQUENCE_STRING: "ACAUGAGAGAUAGGAUAUCUUGUACCUACAUGUGACAUGAGGAUCACCCAUGUGGUAAGUAUGAGAGAGAAGGAUCAGAUAUGU [Equivalence 36 - Jieux - Same State NG 2] (Eterna round: R96, puzzle: Same State NG 2)"
  CLASS_LABEL: "false"
- SEQUENCE_STRING: "UUCACCUUUUUUUACAUGAGGAUCACCCAUGUUUUUUUUACGUAGGAUAUCGAUGCUUGUUUUUUCGAGAAGGACGAUGUAAGU [JR_SSND3_Sub052] (Eterna round: R96, puzzle: Same State NG 3)"
  CLASS_LABEL: "false"
- SEQUENCE_STRING: "GUACAGAUUAUAGGAUAUCACGUCGAUUAGACGUGAGAAGGAUAAUCCCACAUGAAUAUUAAUACAUGAGGAUCACCCAUGUAC [SSNG1/18-B2] (Eterna round: R96, puzzle: Same State NG 1)"
  CLASS_LABEL: "false"
- SEQUENCE_STRING: "AAAACAUGACGAGGAUAUGGUACAUGAGGAUCACCCAUGUAUGUACCACGACGGAAACGUCGAAUCCAGAAGGCGUCAUGAAAA [Mat - Same State NG 2 - JL mod - D25] (Eterna round: R96, puzzle: Same State NG 2)"
  CLASS_LABEL: "false"
- SEQUENCE_STRING: "GCACUCCAAGGAGCUGCGACAUGAGGAUCACCCAUGUAAUCACAGGAUAUGCGAUUCCGAAUUUUGCAGAAGGGUGAUAAGAAC [Ratele] (Eterna round: R96, puzzle: Same State NG 3)"
  CLASS_LABEL: "true"
